// reported melting point per item

Solved entries:
# Compound, Reported Property, Value Observed
records = [
    ("COc1ccc(N2CCN(c3c(C)c(C)c4c(c3C)C(=CCc3ccccc3)C(C)(C)O4)CC2)cc1", "melting point", "166 to 167 °C"),
    ("COc1cc2c(cc1OC)[C@@H]1CCCC[C@@H]1N=C2c1ccc(N)cc1 (racemic)", "melting point", "160 to 161 °C"),
    ("C/C(=C\\c1ccc(Cc2cccnc2)cc1)C(=O)O", "melting point", "164 to 166 °C"),
    ("C=CCCC[C@H]1CC[C@H](c2ccc(C(C)=O)cc2)CC1", "melting point", "47.6 °C"),
    ("CC1CCc2nc(=O)c(C(N)=O)cn21 (configuration not stated)", "melting point", "223 °C"),
    ("CNC(=O)CNC(=O)CN1CCCC1=O", "melting point", "139 to 140 °C"),
]

Using known records, supply melting point for CN1CC=C(c2c[nH]c3ccc(NS(=O)(=O)N(C)C)cc23)CC1
207 to 208 °C

Give the measured melting point for COc1cc2nc(N)nc(-c3c(Br)cc(C)cc3Br)c2cc1OC
235 to 237 °C

Please list melting point recorded for the compound CCOC(=O)C1=C(C)NC(C=NO)=C(C(=O)OCC)C1c1ccccc1Cl (configuration not stated)
136 to 137 °C
